Target: UniProtKB A0ABM1ABB6
Sequence (A0ABM1ABB6 1-470): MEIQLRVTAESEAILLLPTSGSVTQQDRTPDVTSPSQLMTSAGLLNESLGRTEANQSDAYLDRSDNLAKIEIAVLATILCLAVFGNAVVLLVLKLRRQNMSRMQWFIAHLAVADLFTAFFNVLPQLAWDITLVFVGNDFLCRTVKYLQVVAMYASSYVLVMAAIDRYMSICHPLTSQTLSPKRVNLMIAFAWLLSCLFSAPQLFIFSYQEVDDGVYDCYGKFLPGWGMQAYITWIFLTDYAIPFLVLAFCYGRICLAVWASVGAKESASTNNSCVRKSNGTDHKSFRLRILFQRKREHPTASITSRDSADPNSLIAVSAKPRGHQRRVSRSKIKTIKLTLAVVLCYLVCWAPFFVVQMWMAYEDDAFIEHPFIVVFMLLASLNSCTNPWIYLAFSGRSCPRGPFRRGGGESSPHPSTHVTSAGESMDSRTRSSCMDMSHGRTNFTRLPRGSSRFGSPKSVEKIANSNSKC
Assay: cell-based
Assay type: cell-based
Conditions: apVTR1 EC50
Bridge positions count the residues as written; N and C are the ends. Peptide text beside a SMILES is read from it. * marks the point of attachment. Acm = CC(=O)NC*
metric: EC50 (µM)
Answer in µM, number only, no unit symbol.

Entry CC[C@H](C)[C@@H]1NC(=O)[C@H](Cc2ccccc2)NC(=O)[C@@H](N)CSSC[C@@H](C(=O)N2CCC[C@H]2C(=O)N[C@@H](CCCCN)C(=O)NCC(=O)O)NC(=O)[C@H](CC(N)=O)NC(=O)[C@H](CCCNC(=N)N)NC1=O [apVT-OH] (H-CFIRNCPKG-OH; disulfide 1-6; N-terminus assumed) has what EC50?
3.5

Entry CC[C@H](C)[C@H](NC(=O)[C@H](Cc1ccccc1)NC(=O)[C@@H](N)CSCNC(C)=O)C(=O)N[C@@H](CCCNC(=N)N)C(=O)N[C@@H](CC(N)=O)C(=O)N[C@@H](CSCNC(C)=O)C(=O)N1CCC[C@H]1C(=O)N[C@@H](CCCCN)C(=O)NCC(N)=O [[Cys(Acm)^1,6]apVT] (H-C(Acm)FIRNC(Acm)PKG-NH2; N-terminus and C-terminus assumed) has what EC50?
12

Entry CC[C@H](C)[C@@H]1NC(=O)[C@H](Cc2ccccc2)NC(=O)[C@@H](N)CSSC[C@@H](C(=O)N2CCC[C@H]2C(=O)N[C@@H](CCCCN)C(=O)N[C@@H](C)C(N)=O)NC(=O)[C@H](CC(N)=O)NC(=O)[C@H](CCCNC(=N)N)NC1=O [[Ala^9]apVT] (H-CFIRNCPKA-NH2; disulfide 1-6) has what EC50?
1
